target: Neutrophil elastase (Homo sapiens, UniProt P08246); assay: Component deacylation rate constant for interaction with human leukocyte elastase; conditions: read-out: kon (M-1-s-1)
Sequence (P08246 whole entry): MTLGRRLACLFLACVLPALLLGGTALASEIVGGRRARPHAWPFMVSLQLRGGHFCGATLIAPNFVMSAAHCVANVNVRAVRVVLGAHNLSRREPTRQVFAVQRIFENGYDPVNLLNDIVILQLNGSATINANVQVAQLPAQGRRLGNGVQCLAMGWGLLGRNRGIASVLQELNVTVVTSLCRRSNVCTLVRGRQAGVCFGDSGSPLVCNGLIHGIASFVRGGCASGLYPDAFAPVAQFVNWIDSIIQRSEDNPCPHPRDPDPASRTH
Note: every record was labeled by where its kon sits among Low = under 6000 M⁻¹ s⁻¹, Mid = from 6000 M⁻¹ s⁻¹ up to 60000 M⁻¹ s⁻¹, High = 60000 M⁻¹ s⁻¹ and over

Worked examples, 3 compounds total:
O=c1oc(C(F)(F)F)nc2ccccc12 ... High
CSc1nc2cccc(C)c2c(=O)o1 ... High
CCc1cccc2c(=O)oc(NC(C)C)nc12 ... Mid

Assign a category based on measured kon for `CCSc1nc2c(C)cccc2c(=O)o1` and give only the class name.
High

Hi there! Could you help me figure out the category for `COC(=O)[C@H](CC(C)C)Nc1nc2ccccc2c(=O)o1` please?
Low

Band for CC(C)C[C@H](NC(=O)C1CCCN1c1nc2ccccc2c(=O)o1)C(N)=O (stereo not given in full) ?
Mid

Kindly state the category for this compound: `COC(=O)[C@@H](CC(C)C)Nc1nc2ccccc2c(=O)o1`
Mid

Into which category would you place `CCSc1nc2ccc(C)cc2c(=O)o1` ?
High
